These entries and their values trace back to PubChem BioAssay (NCATS).

# assay.info: qHTS Screen of the MIPE 4.0 Collection Against Ewings Sarcoma (EW8) (AID 1259255); note: nearly all actives have a fitted effect of over 35% in size
# stated.conditions: EW8 Ewing sarcoma viability, CellTiter-Glo, 48 h; series mostly up to 45.8 µM
Results filed as inconclusive are left out. Activity calls are given as the source filed them. Calls come from the whole dose curve; as a rule, active = well fitted inhibition curve with a large enough effect; inconclusive = small, poorly fitted or top-dose-only effect; inactive = no such curve, though single readings can be large or run the other way.
Classes used: active, inactive

> print(dat)
                                   compound  category
1  CC(C)Nc1cc(C(F)(F)F)cc2nc(NC(=O)c3cccnc3)nn12  inactive
2  COCCn1c2c([n+](Cc3cnccn3)c1C)C(=O)c1ccccc1C2=O    active
3  COC(=O)C1=C(C)NC(C)=C(C(=O)OCCN2CCN(C(c3ccccc3)c3ccccc3)CC2)C1c1cccc([N+](=O)[O-])c1 (stereo not given)  inactive
4  O=C(O)C1(Cc2cccc(Nc3nccs3)n2)CCC(Oc2cccc(Cl)c2F)CC1 (stereo not given)    active
5  CC(C)c1ccc(Cn2ccc3c4c(N)nc(NC5CC5)nc4ccc32)cc1    active

---

# assay.info: Quantitative High-Throughput drug screen in 47 multiple myeloma cell lines against the NCATS MIPE library collection: MMM1_PLB cell viability assay (AID 1918976); note: potency is the fitted concentration of half-maximal effect; nearly all actives have a fitted effect of over 35% in size
# stated.conditions: MMM1 myeloma cells viability, CellTiter-Glo, 48 h; series mostly up to 45.8 µM
Records with an inconclusive call do not appear. Active and inactive are the calls of the source. Calls follow the shape of the dose curve; as a rule, active = well fitted cell-killing curve with a large enough effect; inconclusive = small, poorly fitted or top-dose-only effect, or effect the other way; inactive = no such curve, though single readings can be large or run the other way.
observed.property: Potency

> print(dat)
                                    compound    measured.result
 1  O=C(Nc1ncc(-c2cc(C(F)F)nn2-c2c(Cl)cccc2Cl)s1)C1CC1   2640 nM (active)
 2  Cc1nc2ccc(CN(C)c3ccc(C(=O)N[C@@H](CCC(=O)O)C(=O)O)s3)cc2c(=O)[nH]1   5900 nM (active)
 3  Nc1ncnc2c1c(-c1cnc3[nH]ccc3c1)nn2C1CCCC1    187 nM (active)
 4  CC[C@@H]1C(=O)N(C)c2cnc(Nc3ccc(C(=O)NC4CCN(C)CC4)cc3OC)nc2N1C1CCCC1  13200 nM (active)
 5   OCCCNc1cc(-c2ccnc(Nc3cccc(Cl)c3)n2)ccn1    166 nM (active)
 6  CC1(O)CC(c2nc(-c3ccc4ccc(-c5ccccc5)nc4c3)c3c(N)nccn23)C1 (centres undefined)    209 nM (active)
 7  NC1(Cc2ccc(Cl)cc2)CCN(c2ncnc3[nH]ccc23)CC1    526 nM (active)
 8  COc1cc2c(Oc3ccc4[nH]c(C)cc4c3F)ncnc2cc1OCCCN1CCCC1  23500 nM (active)
 9  c1nc2nc(Nc3ccc(N4CCOCC4)cc3)nc(NC3CCCCC3)c2[nH]1  10500 nM (active)
10  CC(C)Nc1cc(C(F)(F)F)cc2nc(NC(=O)c3cccnc3)nn12   1870 nM (active)
11  Nc1ccccc1NC(=O)c1ccc(CNC(=O)OCc2cccnc2)cc1   4690 nM (active)
12   CC(C)=CCCC(C)=CCCC(C)=CCSc1ccccc1C(=O)O   1320 nM (active)
13  Nc1ncnc2c1c(-c1cccc(OCc3ccccc3)c1)cn2C1CC(CN2CCCC2)C1 (centres undefined)   1050 nM (active)
14  CN1CC[C@@H](c2c(O)cc(O)c3c(=O)cc(-c4ccccc4Cl)oc23)[C@@H](O)C1    187 nM (active)
15  CN(C)CC=CC(=O)Nc1cc2c(Nc3ccc(F)c(Cl)c3)ncnc2cc1O[C@H]1CCOC1  20900 nM (active)
16  COc1cccc(-c2ccc(NC(=O)C3=C(C(=O)O)CCC3)c(F)c2)c1  20900 nM (active)
17  O=C(c1ccc(Nc2nccc(-c3cc4ccccc4s3)n2)cc1)N1CCC(N2CCCC2)CC1  20900 nM (active)
18  C[C@@]12O[C@@H](C[C@]1(O)CO)n1c3ccccc3c3c4c(c5c6ccccc6n2c5c31)CNC4=O   3320 nM (active)
19  COC(=O)[C@]12CCC(C)(C)C[C@@H]1[C@@H]1C(=O)C=C3[C@@]4(C)C=C(C#N)C(=O)C(C)(C)[C@@H]4CC[C@@]3(C)[C@]1(C)CC2   1320 nM (active)
